- target or test system: human serum albumin (human) (UniProt P02768)
- Sequence (P02768 25-609 limits assumed): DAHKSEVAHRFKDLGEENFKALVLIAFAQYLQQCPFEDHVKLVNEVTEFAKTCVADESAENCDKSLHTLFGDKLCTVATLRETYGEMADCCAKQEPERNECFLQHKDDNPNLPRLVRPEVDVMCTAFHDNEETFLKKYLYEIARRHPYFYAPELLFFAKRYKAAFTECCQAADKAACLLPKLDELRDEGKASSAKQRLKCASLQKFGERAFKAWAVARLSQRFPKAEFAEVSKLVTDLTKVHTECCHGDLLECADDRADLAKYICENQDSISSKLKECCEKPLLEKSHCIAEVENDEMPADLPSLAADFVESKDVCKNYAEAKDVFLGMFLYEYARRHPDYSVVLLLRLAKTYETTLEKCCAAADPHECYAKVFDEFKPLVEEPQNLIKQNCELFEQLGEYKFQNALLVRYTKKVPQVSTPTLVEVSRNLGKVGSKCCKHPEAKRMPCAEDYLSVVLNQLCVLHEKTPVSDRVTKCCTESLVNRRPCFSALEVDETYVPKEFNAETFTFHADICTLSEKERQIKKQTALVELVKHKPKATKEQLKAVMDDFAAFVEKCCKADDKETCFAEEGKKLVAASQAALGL
- experiment notes: screening ELISA
experimental readout: HSA

Field: HSA. Fill in for each record below.
1. SEQ ID NO 204 (designed binder) MLPAPKNLVVSRVTEDSARLPWTAPDAAFDSFWISYYESVGYGEAIVLTVPGSERSYDLTGLKPGTEYYVDISGVKGGVYSLPLSAIFTT
2. SEQ ID NO 136 (designed binder) MLPAPKNLVVSRVTEDSARLSWTAPDAAFDSFFIYYIESYPAGEAIVLTVPGSERSYDLTGLKPGTEYWMGIDGVKGGRWSTPLSAIFTT
3. SEQ ID NO 38 (designed binder) MLPAPKNLVVSRVTEDSARLSWTAPDAAFDSFHIAYEESHTTGEAIFLRVPGSERSYDLTGLKPGTEYSVSIEGVKGGHYSPPLTAKFTT
4. SEQ ID NO 41 (designed binder) MLPAPKNLVISRVTEDSARLSWTAPDAAFDSFFIYYIESYPAGEAIVLTVPGSERSYDLTGLKPGTEYWVGIDGVKGGRWSTPLSAIFTT
5. SEQ ID NO 42 (designed binder) MLPAPKNLVVSRVTEDSARLSWTAPDAAFDSFTIEYYESFYGGEAIVLTVPGSERSYDLTGLKPGTEYYVSIYGVKGGWLSRPLSAIFTT
6. SEQ ID NO 134 (designed binder) MLPAPKNLVVSRVTEDSARLSWTAPDAAFDSFWIDYYERKYVGEAIVLTVPGSERSYDLTGLKPGTEYEVTIYGVKGGWYSDPLSAIFTT
7. SEQ ID NO 247 (designed binder) MLPAPKNLVVSRVTEDSARLSWTAPDAAFDSFYIEWTYKGEAIVLTVPGSERSYDLTGLKPGTEYFVGIPGVKGGKSSYPLSAIFTT
8. SEQ ID NO 46 (designed binder) MLPAPKNLVVSRVTEDSARLSWTAPDAAFDSFTIEYFEFTGTGEAIVLTVPGSERSYDLTGLKPGTEYYVSIYGVKGGLLSAPLSAIFTT

1. 24600
2. 5700
3. 4160
4. 10100
5. 5920
6. 1950
7. 53000
8. 3040

Data request, read-out HSA, for SEQ ID NO 61 (designed binder) MLPAPKNLVVSRVTEDSARLSWRVESRTFDSFLIQYQESEKVGEAIVLTVPGSERSYDLTGLKPGTEYTVSIYGVVWDTRDNPISNPLSAIFTT 10600
